FYI, the data here is from patent US5414006A.

- target.desc: MAO B (Rattus norvegicus, UniProt P19643)
- Sequence (P19643 whole entry): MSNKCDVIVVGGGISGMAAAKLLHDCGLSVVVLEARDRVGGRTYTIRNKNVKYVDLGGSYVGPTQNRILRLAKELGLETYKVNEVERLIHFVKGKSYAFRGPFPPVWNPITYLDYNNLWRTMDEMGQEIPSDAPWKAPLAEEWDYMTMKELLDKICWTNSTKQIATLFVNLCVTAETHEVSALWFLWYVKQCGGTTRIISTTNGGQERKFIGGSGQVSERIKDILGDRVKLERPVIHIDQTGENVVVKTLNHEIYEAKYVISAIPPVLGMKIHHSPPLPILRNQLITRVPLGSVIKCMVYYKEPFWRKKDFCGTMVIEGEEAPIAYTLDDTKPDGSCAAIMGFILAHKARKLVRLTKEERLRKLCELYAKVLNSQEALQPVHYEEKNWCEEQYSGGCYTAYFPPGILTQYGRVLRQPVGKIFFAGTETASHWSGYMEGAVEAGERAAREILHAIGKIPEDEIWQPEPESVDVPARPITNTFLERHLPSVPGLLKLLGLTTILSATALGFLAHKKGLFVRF
endpoint: IC50 (nM)

(1) CCCc1nnc(COc2ccc3c(C)c(C)c(=S)oc3c2)s1
(2) Cc1nnc(COc2ccc3c(C)c(C)c(=S)oc3c2)o1
Query :: For the two items 1 and 2 , which reports the higher IC50 value? Respond using the label that marks the chosen record.
Result :: 2

###

- target.desc: MAO B (Rattus norvegicus, UniProt P19643)
- Construct: from tissue; host or cells: rat brain homogenate
- method.description: MAO B inhibition in dilute rat brain homogenate
- Format: biochemical
- experimental.conditions: selectivity for MAO B over MAO A, rat brain homogenate; 20 min
- Protocol: The MAO-inhibiting activity of the compounds according to the invention can be determined using standard methods. Thus, monoamine oxidases A and B were determined in dilute rat brain homogenate to which test substances in various concentrations and ^14 C-phenylethylamine or ^14 C-tryptamine in a concentration of 0.4 μmol/l were added. […] The reaction was then stopped with 0.1 normal HCl, and the products were determined after extraction in a toluene scintillator (PPO+POPOP in toluene). […]
endpoint: MAO A / MAO B IC50 ratio

>  <structure.as.smiles>
Cc1nnc(COc2ccc3c(C)c(C)c(=S)oc3c2)o1

>  <MAO A / MAO B IC50 ratio>
> 1000

$$$$

Query :: Note down MAO A / MAO B IC50 ratio recorded for CC(C)c1ccc(COc2ccc3ccc(=S)oc3c2)cc1
Result :: > 3333

Query :: Entry Cc1c(C)c2ccc(OCc3nnc(C(C)C)s3)cc2oc1=S needs its MAO A / MAO B IC50 ratio filled in; supply it.
Result :: > 10,000

Query :: Identify MAO A / MAO B IC50 ratio associated with the compound CCCc1nnc(COc2ccc3c(C)c(C)c(=S)oc3c2)s1
Result :: > 5000

Query :: Supply reported MAO A / MAO B IC50 ratio belonging to this compound: Cc1c(C)c2cc(Cl)c(OCc3nnc(C4CC4)s3)cc2oc1=S
Result :: > 1667

Query :: // fetch MAO A / MAO B IC50 ratio given entry Cc1c(C)c2cc(Cl)c(OCc3nnc(C(C)C)s3)cc2oc1=S
Result :: > 3333

Query :: Return value of MAO A / MAO B IC50 ratio for input Cc1c(C)c2ccc(OCc3csc(C(C)C)n3)cc2oc1=S , no commentary.
Result :: > 3333
